Assignment: determine reported log10 of IC50 for the given compounds.
system: HCV replicon genotype 1b; assay: HCV replicon assay, genotype 1b (cell ELISA for NS3/4A); format: cell-based, hepatitis C virus; details: Hepatitis C virus, 96 h, read-out: 1b IC50 (nM), HCV genotype 1b replicon cells, 96 hours incubation, NS3/4A ELISA readout, % of DMSO control
Each number you see is log10 of IC50, and the unit inside the log is nM.

input: # lookup: HCV replicon genotype 1b log10 of IC50, key = CNC(=O)c1c(-c2ccc(F)cc2)oc2cc(N(C)S(C)(=O)=O)c([C@H]3CCCN(S(=O)(=O)C4CCCC4)C3)cc12
output: 1.66

input: # lookup: HCV replicon genotype 1b log10 of IC50, key = CNC(=O)c1c(-c2ccc(F)cc2)oc2cc(N(C)S(C)(=O)=O)c([C@@H]3CCCN(C(=O)c4cc5ccccc5n4C)C3)cc12
output: 1.94

input: # lookup: HCV replicon genotype 1b log10 of IC50, key = CNC(=O)c1c(-c2ccc(F)cc2)oc2cc(N(C)S(C)(=O)=O)c([C@@H]3CCCN(C(=O)c4cc5cccc(OC)c5[nH]4)C3)cc12 (single isomer, unassigned)
output: 1.13

input: # lookup: HCV replicon genotype 1b log10 of IC50, key = CNC(=O)c1c(-c2ccc(F)cc2)oc2cc(N(C)S(C)(=O)=O)c([C@H]3CCCN(S(=O)(=O)Cc4ccc(F)cc4)C3)cc12
output: 0.65

input: # lookup: HCV replicon genotype 1b log10 of IC50, key = CNC(=O)c1c(-c2ccc(F)cc2)oc2cc(N(C)S(C)(=O)=O)c([C@H]3CCCN(C(=O)c4cc5cccc(C(F)(F)F)c5[nH]4)C3)cc12
output: 1.44

input: # lookup: HCV replicon genotype 1b log10 of IC50, key = CNC(=O)c1c(-c2ccc(F)cc2)oc2cc(N(C)S(C)(=O)=O)c([C@@H]3CCCN(C(=O)CC4CCCCC4)C3)cc12
output: 1.95

###

test system: HCV replicon genotype 1b; test: HCV replicon assay, genotype 1b (cell ELISA for NS3/4A); type: cell-based, hepatitis C virus; settings: Hepatitis C virus, 96 h, read-out: 1b IC50 (nM), HCV genotype 1b replicon cells, 96 hours incubation, NS3/4A ELISA readout, % of DMSO control
property.name: log10(IC50) (log10 of the value in nM)
Each number you see is log10 of IC50, and the unit inside the log is nM.

input: # lookup: HCV replicon genotype 1b log10(IC50), key = CNC(=O)c1c(-c2ccc(F)cc2)oc2cc(N(C)S(C)(=O)=O)c([C@@H]3CCCN(c4nc5cc(F)ccc5o4)C3)cc12 (single isomer, unassigned)
output: 1.63

input: # lookup: HCV replicon genotype 1b log10(IC50), key = CNC(=O)c1c(-c2ccc(F)cc2)oc2cc(N(C)S(C)(=O)=O)c([C@H]3CCCN(C(=O)C(c4ccccc4)N4CCOCC4)C3)cc12 (stereo partly drawn)
output: 2.05

input: # lookup: HCV replicon genotype 1b log10(IC50), key = CNC(=O)c1c(-c2ccc(F)cc2)oc2cc(N(C)S(C)(=O)=O)c([C@H]3CCCN(S(=O)(=O)c4ccccc4F)C3)cc12
output: 1.61

input: # lookup: HCV replicon genotype 1b log10(IC50), key = CNC(=O)c1c(-c2ccc(F)cc2)oc2cc(N(C)S(C)(=O)=O)c([C@@H]3CCCN(S(=O)(=O)c4cc5cccc(F)c5[nH]4)C3)cc12
output: 1.61

input: # lookup: HCV replicon genotype 1b log10(IC50), key = CNC(=O)c1c(-c2ccc(F)cc2)oc2cc(N(C)S(C)(=O)=O)c([C@H]3CCCN(C(=O)[C@@H](NC(=O)OC(C)(C)C)c4ccccc4F)C3)cc12
output: 2.23

input: # lookup: HCV replicon genotype 1b log10(IC50), key = CNC(=O)c1c(-c2ccc(F)cc2)oc2cc(N(C)S(C)(=O)=O)c([C@@H]3CCCN(S(=O)(=O)c4cccc(F)c4)C3)cc12
output: 0.91

input: # lookup: HCV replicon genotype 1b log10(IC50), key = CNC(=O)c1c(-c2ccc(F)cc2)oc2cc(N(C)S(C)(=O)=O)c([C@H]3CCCN(S(=O)(=O)c4cccc(C)c4)C3)cc12
output: 1.96

input: # lookup: HCV replicon genotype 1b log10(IC50), key = CNC(=O)c1c(-c2ccc(F)cc2)oc2cc(N(C)S(C)(=O)=O)c([C@@H]3CCCN(S(=O)(=O)c4cnc5n4CCCCC5)C3)cc12
output: 1.83

input: # lookup: HCV replicon genotype 1b log10(IC50), key = CNC(=O)c1c(-c2ccc(F)cc2)oc2cc(N(C)S(C)(=O)=O)c([C@@H]3CCCN(S(=O)(=O)c4ccccc4C)C3)cc12
output: 1.24

input: # lookup: HCV replicon genotype 1b log10(IC50), key = CNC(=O)c1c(-c2ccc(F)cc2)oc2cc(N(C)S(C)(=O)=O)c([C@@H]3CCCN(C(=O)c4cc5cccc(F)c5[nH]4)C3)cc12
output: 1.28

input: # lookup: HCV replicon genotype 1b log10(IC50), key = CNC(=O)c1c(-c2ccc(F)cc2)oc2cc(N(C)S(C)(=O)=O)c([C@H]3CCCN(S(=O)(=O)c4ccc(F)cc4)C3)cc12
output: 1.95

input: # lookup: HCV replicon genotype 1b log10(IC50), key = CNC(=O)c1c(-c2ccc(F)cc2)oc2cc(N(C)S(C)(=O)=O)c(C3C[C@@H](c4nc5c(F)cccc5o4)N(C)C3)cc12 (stereo partly drawn)
output: 1.58

###

system: HCV replicon genotype 1b; test: HCV replicon assay, genotype 1b (cell ELISA for NS3/4A); type: cell-based, hepatitis C virus; details: Hepatitis C virus, 96 h, read-out: 1b IC50 (nM), HCV genotype 1b replicon cells, 96 hours incubation, NS3/4A ELISA readout, % of DMSO control
Assignment: determine reported IC50 for the given compounds.
Report the value in nM with no unit label.

input: Kindly indicate its recorded IC50. Item: CNC(=O)c1c(-c2ccc(F)cc2)oc2cc(N(C)S(C)(=O)=O)c([C@H]3CCCN(S(=O)(=O)/C=C/c4ccccc4)C3)cc12
output: 33.1

input: Kindly indicate its recorded IC50. Item: CNC(=O)c1c(-c2ccc(F)cc2)oc2cc(N(C)S(C)(=O)=O)c([C@@H]3CCCN(S(=O)(=O)Cc4cccnc4)C3)cc12
output: 38.4

input: Kindly indicate its recorded IC50. Item: CNC(=O)c1c(-c2ccc(F)cc2)oc2cc(N(C)S(C)(=O)=O)c([C@H]3CCCN(C(=O)c4nn(C)c(=O)c5ccccc45)C3)cc12
output: 219

input: Kindly indicate its recorded IC50. Item: CNC(=O)c1c(-c2ccc(F)cc2)oc2cc(N(C)S(C)(=O)=O)c([C@@H]3CCCN(c4nc5ccccc5n4C)C3)cc12 (single isomer, unassigned)
output: 93

input: Kindly indicate its recorded IC50. Item: CNC(=O)c1c(-c2ccc(F)cc2)oc2cc(N(C)S(C)(=O)=O)c([C@@H]3CCCN(c4nc5ncccc5o4)C3)cc12 (single isomer, unassigned)
output: 15.7

input: Kindly indicate its recorded IC50. Item: CNC(=O)c1c(-c2ccc(F)cc2)oc2cc(N(C)S(C)(=O)=O)c([C@@H]3CCCN(C(=O)c4cc5ncccc5[nH]4)C3)cc12
output: 46.3

input: Kindly indicate its recorded IC50. Item: CNC(=O)c1c(-c2ccc(F)cc2)oc2cc(N(C)S(C)(=O)=O)c([C@H]3CCCN(C(=O)c4cc5cccc(F)c5[nH]4)C3)cc12
output: 9.38

input: Kindly indicate its recorded IC50. Item: CNC(=O)c1c(-c2ccc(F)cc2)oc2cc(N(C)S(C)(=O)=O)c(C3CC(c4nc5c(F)cccc5o4)CN(C)C3)cc12 (centres unmarked)
output: 34.3

input: Kindly indicate its recorded IC50. Item: CNC(=O)c1c(-c2ccc(F)cc2)oc2cc(N(C)S(C)(=O)=O)c([C@H]3CCCN(S(=O)(=O)c4ccccc4C)C3)cc12
output: 24.2

input: Kindly indicate its recorded IC50. Item: CNC(=O)c1c(-c2ccc(F)cc2)oc2cc(N(C)S(C)(=O)=O)c([C@H]3CCCN(C(=O)c4c[nH]c5cc(F)ccc45)C3)cc12
output: 295

input: Kindly indicate its recorded IC50. Item: CNC(=O)c1c(-c2ccc(F)cc2)oc2cc(N(C)S(C)(=O)=O)c([C@@H]3CCCN(C(=O)c4cc5cccc(C(F)(F)F)c5[nH]4)C3)cc12
output: 36.4

input: Kindly indicate its recorded IC50. Item: CNC(=O)c1c(-c2ccc(F)cc2)oc2cc(N(C)S(C)(=O)=O)c([C@@H]3CCCN(C(=O)c4nc5ccccc5n4C)C3)cc12 (single isomer, unassigned)
output: 57.7

input: Kindly indicate its recorded IC50. Item: CNC(=O)c1c(-c2ccc(F)cc2)oc2cc(N(C)S(C)(=O)=O)c([C@H]3CCCN(C(=O)c4nc5ccc(F)cc5s4)C3)cc12
output: 102

input: Kindly indicate its recorded IC50. Item: CNC(=O)c1c(-c2ccc(F)cc2)oc2cc(N(C)S(C)(=O)=O)c([C@H]3CCCN(S(=O)(=O)c4ccc5ncsc5c4)C3)cc12
output: 110

input: Kindly indicate its recorded IC50. Item: CNC(=O)c1c(-c2ccc(F)cc2)oc2cc(N(C)S(C)(=O)=O)c([C@@H]3CCCN(C(=O)c4coc(-c5ccc(F)cc5)n4)C3)cc12
output: 23.6

input: Kindly indicate its recorded IC50. Item: CNC(=O)c1c(-c2ccc(F)cc2)oc2cc(N(C)S(C)(=O)=O)c([C@@H]3CCCN(C(=O)Cc4ccc(F)cn4)C3)cc12 (stereo in doubt)
output: 67.9

input: Kindly indicate its recorded IC50. Item: CNC(=O)c1c(-c2ccc(F)cc2)oc2cc(N(C)S(C)(=O)=O)c([C@H]3CCCN(C(=O)c4cc5ccccn5c4)C3)cc12
output: 51.5

input: Kindly indicate its recorded IC50. Item: CNC(=O)c1c(-c2ccc(F)cc2)oc2cc(N(C)S(C)(=O)=O)c([C@H]3CCCN(C(=O)c4nc5ncccc5[nH]4)C3)cc12
output: 286

input: Kindly indicate its recorded IC50. Item: CNC(=O)c1c(-c2ccc(F)cc2)oc2cc(N(C)S(C)(=O)=O)c([C@@H]3CCCN(S(=O)(=O)c4cnc5c(c4)OCCN5C)C3)cc12
output: 32.4

input: Kindly indicate its recorded IC50. Item: CNC(=O)c1c(-c2ccc(F)cc2)oc2cc(N(C)S(C)(=O)=O)c([C@H]3CCCN(C(=O)c4cc5cc(C(F)(F)F)ccc5n4C)C3)cc12
output: 45.2

input: Kindly indicate its recorded IC50. Item: CNC(=O)c1c(-c2ccc(F)cc2)oc2cc(N(C)S(C)(=O)=O)c([C@H]3CCCN(c4nc5c(C#N)cccc5o4)C3)cc12
output: 6.53

input: Kindly indicate its recorded IC50. Item: CNC(=O)c1c(-c2ccc(F)cc2)oc2cc(N(C)S(C)(=O)=O)c([C@H]3CCCN(C(=O)c4c(C)c5cc(F)ccc5n4C)C3)cc12
output: 115

input: Kindly indicate its recorded IC50. Item: CNC(=O)c1c(-c2ccc(F)cc2)oc2cc(N(C)S(C)(=O)=O)c([C@@H]3CCCN(C(=O)c4cc(-c5ccc(F)cc5)n[nH]4)C3)cc12
output: 23.4
